Values compiled from patent US6569878B1.

Tested on: HCT116
protocol.summary: Inhibition of cell growth, MTT assay, HCT116
Assay type: cell-based, human
settings: Homo sapiens, HCT-116, at 30 μM
Output Met for inhibition at 30 µM not less than 30%; output Not met otherwise.

molecule | target.desc | cat
Nc1nc(Nc2ccc(C(=O)O)cc2)sc1C(=O)c1ccccc1[N+](=O)[O-] [E(1)] | HCT116 | Not met
Nc1nc(Nc2ccccc2)sc1C(=O)c1ccccn1 [A(4)] | HCT116 | Not met
CCOC(=O)c1ccc(Nc2nc(N)c(C(=O)c3ccccc3[N+](=O)[O-])s2)cc1 [A(5)] | HCT116 | Met
CN(C)c1ccc(Nc2nc(N)c(C(=O)c3ccccn3)s2)cc1 [I(19)] | HCT116 | Not met
Nc1nc(Nc2cccnc2)sc1C(=O)c1ccccc1 [A(3)] | HCT116 | Met

---

Reported Ki is given for each of the following molecules.
target.desc: complex of human CDK4 and cyclin D3 (Homo sapiens)
Construct: made in house; host or cells: insect cells, co-infected with baculovirus
Sequence (P11802 whole entry): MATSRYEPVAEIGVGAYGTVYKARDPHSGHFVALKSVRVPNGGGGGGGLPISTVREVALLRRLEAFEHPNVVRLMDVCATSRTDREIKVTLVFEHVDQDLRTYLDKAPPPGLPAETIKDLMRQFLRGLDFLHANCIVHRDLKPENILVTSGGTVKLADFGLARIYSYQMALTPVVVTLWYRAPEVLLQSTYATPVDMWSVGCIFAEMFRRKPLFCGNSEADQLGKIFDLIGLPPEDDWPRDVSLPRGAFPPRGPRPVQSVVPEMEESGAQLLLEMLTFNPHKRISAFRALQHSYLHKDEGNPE
Sequence (P30281 whole entry partner): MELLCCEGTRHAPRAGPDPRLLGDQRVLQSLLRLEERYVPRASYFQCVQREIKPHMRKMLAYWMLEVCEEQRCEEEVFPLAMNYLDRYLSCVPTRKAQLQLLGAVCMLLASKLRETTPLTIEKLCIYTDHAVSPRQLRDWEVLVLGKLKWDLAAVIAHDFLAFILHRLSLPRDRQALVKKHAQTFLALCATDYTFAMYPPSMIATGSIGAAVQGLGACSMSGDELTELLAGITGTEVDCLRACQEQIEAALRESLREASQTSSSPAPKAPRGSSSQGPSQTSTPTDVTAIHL
protocol.summary: Inhibition of CDK4/cyclin D retinoblastoma kinase activity (D-type cyclin is D3)
Type: biochemical
settings: superscript a: D-type cyclin is D3; μM; read-out: Ki CDK 4/D
measured.metric: Ki

molecule | measured.metric | experimental.result
CCC(Nc1nc(N)c(C(=O)c2ccc([N+](=O)[O-])cc2)s1)C(=O)OC (stereo in doubt) | Ki | > 10 µM
COc1ccc(C(=O)Nc2nc(N)c(C(=O)c3ccccc3[N+](=O)[O-])s2)cc1 | Ki | > 25 µM
COc1ccc(C(=O)c2sc(Nc3ccccc3)nc2N)cc1 | Ki | > 20 µM
CC(=O)c1sc(NCc2ccccc2)nc1N | Ki | > 5 µM
Nc1nc(Nc2ccc(S(N)(=O)=O)cc2)sc1C(=O)c1ccc(OC(=O)c2ccccc2)cc1 | Ki | > 100 µM
COC(=O)c1cccc(Nc2nc(N)c(C(=O)c3ccc(Br)cc3)s2)c1 | Ki | > 50 µM
Nc1nc(Nc2ccc([N+](=O)[O-])cc2)sc1C(=O)c1ccccc1 | Ki | > 25 µM
COc1ccc(CNc2nc(N)c(C(=O)c3cc(C)sc3C)s2)cc1 | Ki | > 30 µM

---

target.desc: complex of human CDK4 and cyclin D3 (Homo sapiens)
Construct: made in house; host or cells: insect cells, co-infected with baculovirus
protocol.summary: Inhibition of CDK4/cyclin D retinoblastoma kinase activity (D-type cyclin is D3)
Type: biochemical
settings: superscript a: D-type cyclin is D3; apparent Ki; read-out: Ki CDK 4/D
pKi: −log10 of the molar value.

compound | pKi
Cc1ccc(C(=O)c2sc(Nc3ccccc3)nc2N)cc1 [I(12)] | 6.42
CC(=O)c1sc(Nc2ccccc2)nc1N [I(2)*] | 5.10
Cc1ccc(C(=O)c2sc(Nc3ccc(N4CCOCC4)cc3)nc2N)c(C)c1 [C(54)] | 7.47
COC(=O)c1cccc(Nc2nc(N)c(C(=O)c3ccccc3OC)s2)c1 [C(26)] | 6.48
NC(=O)N1CCN(c2ccc(Nc3nc(N)c(C(=O)c4c(F)cccc4F)s3)cc2)CC1 [C(123)] | 7.81
Nc1nc(Nc2ccc(S(N)(=O)=O)cc2)sc1C(=O)c1c(F)cc(F)cc1F [C(115)] | 7.24
Cc1c(C(=O)c2sc(Nc3ccc(S(N)(=O)=O)cc3)nc2N)sc2ccccc12 [C(49)] | 7.64
CNS(=O)(=O)c1ccc(Nc2nc(N)c(C(=O)c3sccc3C)s2)cc1 [C(114)] | 7.68
